# Tested on: Pseudomonas aeruginosa
# Assay Method Text: Antibacterial activity against Pseudomonas aeruginosa ATCC 9027 at 100 ug/ml by agar cup-plate method
# Type: functional
# Study Conditions: read-out: IZ
Reported zone of inhibition at 100 µg/mL values follow for various molecules
Hi! Could you send only the number? It should be in mm, unit omitted.

O=c1c2cc(I)ccc2nc(Cc2ccccc2Nc2ccccc2)n1NC1=NNC(c2ccccc2O)C1 (centres undefined) = 10
O=c1c2cc(I)ccc2nc(Cc2ccccc2Nc2ccccc2)n1NC1=NNC(c2ccccc2[N+](=O)[O-])C1 (centres undefined) = 15
CN(C)c1ccc(C2CC(Nn3c(Cc4ccccc4Nc4ccccc4)nc4ccc(I)cc4c3=O)=NN2)cc1 (centres undefined) = 7

Now consider the entry below.
Enquiry: // returns reported zone of inhibition at 100 µg/mL for input O=c1c2cc(I)ccc2nc(Cc2ccccc2Nc2ccccc2)n1NC1=NNC(c2ccccc2)C1 (centres undefined)
Return: 7
